Tested on: NCI/ADR-RES ovarian
Assay: NCI tumour cell line growth inhibition, 48 h; in the data active = GI50 below about 0.43 µM; inactive = the rest
Answer with one of the outcomes Y for active, N for inactive

| compound | class-assignment |
| --- | --- |
| O=C(COc1ccc(-c2nc3cc(Cl)c(Cl)cc3[nH]2)cc1)N=Nc1c(O)[nH]c2ccccc12 | N |
| CCN1C(=O)N(CC)C2C1NN=c1s/c(=C\c3cccc([N+](=O)[O-])c3)c(=O)n12 (centres undefined) | Y |
| C[C@]12CCc3sc(-c4cccc(F)c4)nc3C1=CC[C@@H]1[C@@H]2CC[C@]2(C)C(=O)CC[C@@H]12 | N |
| CCc1c(C)c2ccc(OCC(=O)N=Nc3c(O)[nH]c4ccccc34)c(C)c2oc1=O | N |
| COc1ccc2nccc(/C=C/c3ccnc4ccc(OC)cc34)c2c1 | N |
| Nc1cc2nc3ccccc3oc-2cc1=O | N |
| COC(=O)[C@@H](OC)[C@@H]1Cc2cc3cc(OC4CC(OC5CC(O)C(O)C(C)O5)C(O)C(C)O4)c(C)c(O)c3c(O)c2C(=O)[C@H]1OC1CC(OC2CC(OC3CC(C)(O)C(O)C(C)O3)C(O)C(C)O2)C(O)C(C)O1 (some centres undefined) | N |
| CSc1nc(N)c2c(n1)NC(c1ccccc1)C1CCc3ccccc3C1=N2 (centres undefined) | N |

Now let's try a different one.
What outcome does the record of this test show for "Oc1ccccc1C=Nc1ccccc1N=Cc1ccccc1O.[Cu+2]" ?
N
